From: ChEMBL document CHEMBL4483862

- Tested on: Plasmodium berghei
- Assay comment: Luciferase/luciferin-expressing antifolate-resistant parasites were used to infect a culture of HepG2 cells that were pre-incubated with compounds. Infected hepatocytes emit light due to the luciferase reaction. Assay results are presented as the percent inhibition of light emission compared to control. […]
- Assay type: functional
- Protocol conditions: sporozoite, HEPG2TOX_HILL_SLOPE 18.3, HEPG2TOX_R_SQUARED 0.752, PBLUC_HILL_SLOPE 13.2, PBLUC_R_SQUARED 0.331, read-out: LUCIFERASE INFECTION ASSAY - IC50

Entry smiles	IC50, µM
COc1ccccc1C(=O)Nc1cc(-c2cn3cccnc3n2)ccc1C	9.08
